// provenance: patent US8563712B2

Test system: MCF7
protocol summary: Crystal violet anti-proliferative assay
Assay type: cell-based, human
experimental setup: 24 hours, 10% FBS
result type: IC50 (µM)
Numbers only, in µM.

Bench note, MCF7: N.N.[Cl][Pt][Cl] [cisplatin] , IC50 reads 20.1

###

Tested on: T47D
protocol summary: Crystal violet anti-proliferative assay
Type: cell-based, human
experimental setup: 48 hours, 10% FBS
result type: pIC50
Answers are plain numbers, as −log10 of the molar value.

For reference, reported pIC50 for N.N.[Cl][Pt][Cl] [cisplatin] stands at 5.17

###

Tested on: MDA-MB-231
protocol summary: Crystal violet anti-proliferative assay
Format: cell-based, human
experimental setup: 48 hours, 10% FBS
Method: Table 1). The presence of high concentrations of serum had no effects on the potencies of the drug. […] Similar results were observed when the drug exposure time was extended to 48 h. […] The antiproliferative activity of another gold(III) porphyrin complex ([Au^III(TPP)]Cl, gold-1a) in MDA-MB-231 cells was also tested. […] Apoptosis of MDA-MB-231 cells were evaluated by measuring DNA fragmentation.
result type: IC50 (µM)
Give bare numbers, in µM.

Value of measured IC50 for the entry N.N.[Cl][Pt][Cl] [cisplatin] : 18.4

###

Test system: BT474
protocol summary: Crystal violet anti-proliferative assay
Type: cell-based, human
experimental setup: 48 hours, 10% FBS
result type: pIC50
One number for each entry, as −log10 of the molar value.

Note to self: pIC50 recorded for N.N.[Cl][Pt][Cl] [cisplatin] was 5.54
